This collection of values is drawn from patent US20100137305A1.

Parameter pKi: see the listing below.
# target: T315I mutant of human Abl (Homo sapiens, UniProt P00519, T315I)
# experiment_notes: Mutant Abl Kinase (T315I) Activity Inhibition Assay (Upstate, radiometric)
pKi: −log10 of the molar value.

[
  {
    "compound": "Cc1cc(Nc2cc(N3CCC(N4CCC(F)C4)CC3)nc(Sc3ccc(NC(=O)CC(F)(F)F)cc3)n2)[nH]n1 (centres unmarked)",
    "pKi": "> 6.70"
  },
  {
    "compound": "CCC(=O)Nc1ccc(Sc2nc(Nc3cc(C)n[nH]3)cc(N3CCC(C(C)(C)O)CC3)n2)cc1",
    "pKi": "6.30 to 6.70"
  },
  {
    "compound": "CCC(=O)Nc1ccc(Sc2nc(Nc3cc(C)n[nH]3)cc(N3CCC4(CCN(C)C4)CC3)n2)cc1",
    "pKi": "> 6.70"
  }
]

Provide measured pKi on T315I mutant of human Abl (Homo sapiens, UniProt P00519, T315I) for Cc1cc(Nc2cc(N3CCC(F)C3)nc(Sc3ccc(NC(=O)CC(F)(F)F)cc3)n2)[nH]n1 (centres unmarked) please.
> 6.70

Enter measured pKi, system T315I mutant of human Abl (Homo sapiens, UniProt P00519, T315I), for the compound shown: Cc1cc(Nc2cc(N3CCC(F)C3)nc(Sc3ccc(NC(=O)CCC(F)(F)F)cc3)n2)[nH]n1 (centres unmarked)
> 6.70

Send back T315I mutant of human Abl (Homo sapiens, UniProt P00519, T315I) pKi of Cc1cc(Nc2cc(N3CCC(F)(F)C3)nc(Sc3ccc(NC(=O)CC(F)(F)F)cc3)n2)[nH]n1 only.
> 6.70
